Target: T1, Cmr6 (TTHB165) with a (His)6 tag at its C-terminus (Thermus thermophilus HB8, UniProt Q53W04 2-348)
T1 sequence (looked up): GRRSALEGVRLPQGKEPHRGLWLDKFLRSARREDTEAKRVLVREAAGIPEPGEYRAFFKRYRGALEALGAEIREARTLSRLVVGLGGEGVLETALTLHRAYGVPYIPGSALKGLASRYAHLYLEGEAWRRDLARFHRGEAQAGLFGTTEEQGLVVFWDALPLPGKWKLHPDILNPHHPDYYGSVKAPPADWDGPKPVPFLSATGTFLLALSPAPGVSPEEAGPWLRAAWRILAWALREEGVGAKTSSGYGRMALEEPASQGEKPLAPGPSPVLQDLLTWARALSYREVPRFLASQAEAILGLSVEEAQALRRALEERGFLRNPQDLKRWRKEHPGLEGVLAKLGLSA
Assay: native MS
Recorded measurements of stoichiometry N, one per entry
Respond with the bare value in copies per Cmr6.

# annotated cases, reported stoichiometry N shown
INSERT INTO measurements (binder, test_value) VALUES
  ('Cmr5 (TTHB164) (natural protein, Thermus thermophilus HB8 (endogenous), UniProt Q53W05 1-114, looked up) MRTRSQVWAQKAYEKVREAAKGEGRGEYRDMALKLPVLVRQAGLSQALAFVDSRGKEAHKALGNDLAQVLGYRDLRELAEAAREAELLQYLRLTREVLAAAEWFKRFAQALIEE', 3),
  ('Cmr3 (TTHB161) (natural protein, Thermus thermophilus HB8 (endogenous), UniProt Q53W08 1-361, looked up) MLIEPRDPLIVRDGRPFTNSPGARAKSLPFPLPQTLAGAYRTRRALLEGLPLPERAEEVLRWGLRGPLLAEEGEGGWRLLAPRPLDALKLGEALYPLRPLELPQGAGTNLPEGLSPVGLPSPALKEKPAPLPAFWYWESFLEWLLQDAPAGFAPRGHEGPVPETRTHVALDPAAQTAREGFLFQTSGLEFVRGRRRLALVLWPEGPEPEGVFPLGGERRLAFWQKGGPGVPPLPEEVVAGLLRHRAARLVFLTPAFLGEAYLPKGRAFQGASVVAAVVGRPLAVSGWNLKEGKPKPSRRAVPAGSVYFVRLPEAWGEGEVRDWAEKVWFQNLSEEEQDRRDGFGLAALGLWDGKLRRWEEA', 1);

Turning now to a further binder:
In: I am curious: what stoichiometry N value has been reported for Cmr1 (TTHB162) (natural protein, Thermus thermophilus HB8 (endogenous), UniProt Q53W07 1-395, looked up) MRRAFREAFSPRRKEEGGVLVRRDGARVLAWERTYTLLTPLFGGGVEPREADPVSVVRATAVRGHLRFWWRAVRGWRAGGSLERLWELESALFGSAGEGGASPLSVEVEVLREGEKVGIAQYGRAVQWYLGFPLRGDKEWAPVKEGVAFRLRLRFPEKVGELNFWEELEAALWAWETFGGIGARTRRGFGALLPQGAGVPGEEEIREKLRQYGQKAGWPEGVPHLTPKSFVRVVPLSWRELAERYQAFRQARPGGDPRSPGRSYWPEPDGVRRLTGRHAPHHLPRHPVHKFPRAHFGLPIIFHFKDRGDPPDTTLRLKEADRRASPLLFRPLGEGQKPCVVAVLEGARFPGEKLVLEGKDGRTWDVDPWLTPEEAQKIPVLGGEVDPVLAFVKSL ?
Out: 1
